assay: Plasma pharmacokinetics and tissue distribution 2 h after oral cabazitaxel 10 mg/kg with vehicle or 25 mg/kg ritonavir in wild-type, Oatp1a/1b−/−, Oatp1a/1b/2b1−/−, OATP1B1- and OATP1B3-transgenic mice; format: in vivo; settings: male, FVB, Oatp1a/1b/2b1−/−, mouse, plasma, po, 10 mg/kg, Oatp1a/1b/2b1−/− mice; ritonavir 25 mg/kg oral; cabazitaxel 10 mg/kg oral; read-out: AUC0-2 h
quantity: AUC(0-t)

1) CO[C@H]1C(=O)[C@]2(C)[C@@H](OC)C[C@H]3OC[C@@]3(OC(C)=O)[C@H]2[C@H](OC(=O)c2ccccc2)[C@]2(O)C[C@H](OC(=O)[C@H](O)[C@@H](NC(=O)OC(C)(C)C)c3ccccc3)C(C)=C1C2(C)C ... 6.8 µM·h

====

Listing of entries alongside the reported AUC(0-t).
experiment: Plasma pharmacokinetics and tissue distribution 2 h after oral cabazitaxel 10 mg/kg with vehicle or 25 mg/kg ritonavir in wild-type, Oatp1a/1b−/−, Oatp1a/1b/2b1−/−, OATP1B1- and OATP1B3-transgenic mice; assay type: in vivo; settings: male, FVB, mouse, plasma, po, 10 mg/kg, OATP1B3-transgenic mice; vehicle pretreatment; oral 10 mg/kg cabazitaxel; plasma, 0-2 h; read-out: AUC0-2 h
quantity: AUC(0-t) (µM·h)

1) CC(=O)O[C@@]12CO[C@@H]1C[C@H](O)[C@@]1(C)C(=O)[C@H](O)C3=C(C)[C@@H](OC(=O)[C@H](O)[C@@H](NC(=O)OC(C)(C)C)c4ccccc4)C[C@@](O)([C@@H](OC(=O)c4ccccc4)[C@H]21)C3(C)C ... 0.305
2) CO[C@H]1C(=O)[C@]2(C)[C@@H](OC)C[C@H]3OC[C@@]3(OC(C)=O)[C@H]2[C@H](OC(=O)c2ccccc2)[C@]2(O)C[C@H](OC(=O)[C@H](O)[C@@H](NC(=O)OC(C)(C)C)c3ccccc3)C(C)=C1C2(C)C ... 3.51

====

Measured Tmax, listed per entry.
assay: Plasma pharmacokinetics and tissue distribution 2 h after oral cabazitaxel 10 mg/kg with vehicle or 25 mg/kg ritonavir in wild-type, Oatp1a/1b−/−, Oatp1a/1b/2b1−/−, OATP1B1- and OATP1B3-transgenic mice; assay type: in vivo; conditions: male, FVB, mouse, plasma, po, 10 mg/kg, Oatp1a/1b/2b1−/− mice; vehicle pretreatment; oral 10 mg/kg cabazitaxel
quantity: Tmax (min)

1) CO[C@H]1C(=O)[C@]2(C)[C@@H](OC)C[C@H]3OC[C@@]3(OC(C)=O)[C@H]2[C@H](OC(=O)c2ccccc2)[C@]2(O)C[C@H](OC(=O)[C@H](O)[C@@H](NC(=O)OC(C)(C)C)c3ccccc3)C(C)=C1C2(C)C ... 26.7
2) CC(=O)O[C@@]12CO[C@@H]1C[C@H](O)[C@@]1(C)C(=O)[C@H](O)C3=C(C)[C@@H](OC(=O)[C@H](O)[C@@H](NC(=O)OC(C)(C)C)c4ccccc4)C[C@@](O)([C@@H](OC(=O)c4ccccc4)[C@H]21)C3(C)C ... 35

====

assay: Plasma pharmacokinetics and tissue distribution 2 h after oral cabazitaxel 10 mg/kg with vehicle or 25 mg/kg ritonavir in wild-type, Oatp1a/1b−/−, Oatp1a/1b/2b1−/−, OATP1B1- and OATP1B3-transgenic mice; format: in vivo; conditions: male, FVB, mouse, brain/plasma, po, 10 mg/kg, OATP1B3-transgenic mice; vehicle; cabazitaxel 10 mg/kg oral; 2 h; read-out: Brain-to-plasma ratio
quantity: Kp at 2 h

1) CO[C@H]1C(=O)[C@]2(C)[C@@H](OC)C[C@H]3OC[C@@]3(OC(C)=O)[C@H]2[C@H](OC(=O)c2ccccc2)[C@]2(O)C[C@H](OC(=O)[C@H](O)[C@@H](NC(=O)OC(C)(C)C)c3ccccc3)C(C)=C1C2(C)C ... 0.067

====

assay: Carboxylesterase pharmacokinetic experiment: oral cabazitaxel 10 mg/kg, 2 h, in wild-type, Ces1cde−/− and Ces1−/− mice; assay type: in vivo; settings: male, FVB, mouse, liver, po, 10 mg/kg, Ces1cde−/− mice; oral 10 mg/kg cabazitaxel; 2 h; read-out: Liver-to-plasma ratio
quantity: Kp at 2 h

1) CO[C@H]1C(=O)[C@]2(C)[C@@H](OC)C[C@H]3OC[C@@]3(OC(C)=O)[C@H]2[C@H](OC(=O)c2ccccc2)[C@]2(O)C[C@H](OC(=O)[C@H](O)[C@@H](NC(=O)OC(C)(C)C)c3ccccc3)C(C)=C1C2(C)C [cabazitaxel] ... 13.1

====

Tmax reference
test: Plasma pharmacokinetics and tissue distribution 2 h after oral cabazitaxel 10 mg/kg with vehicle or 25 mg/kg ritonavir in wild-type, Oatp1a/1b−/−, Oatp1a/1b/2b1−/−, OATP1B1- and OATP1B3-transgenic mice; type: in vivo; conditions: male, FVB, mouse, plasma, po, 10 mg/kg, wild-type mice; vehicle pretreatment; oral 10 mg/kg cabazitaxel
quantity: Tmax (min)

1. CC(=O)O[C@@]12CO[C@@H]1C[C@H](O)[C@@]1(C)C(=O)[C@H](O)C3=C(C)[C@@H](OC(=O)[C@H](O)[C@@H](NC(=O)OC(C)(C)C)c4ccccc4)C[C@@](O)([C@@H](OC(=O)c4ccccc4)[C@H]21)C3(C)C ... 25
2. CO[C@H]1C(=O)[C@]2(C)[C@@H](OC)C[C@H]3OC[C@@]3(OC(C)=O)[C@H]2[C@H](OC(=O)c2ccccc2)[C@]2(O)C[C@H](OC(=O)[C@H](O)[C@@H](NC(=O)OC(C)(C)C)c3ccccc3)C(C)=C1C2(C)C ... 25.8

====

assay: Plasma pharmacokinetics and tissue distribution 2 h after oral cabazitaxel 10 mg/kg with vehicle or 25 mg/kg ritonavir in wild-type, Oatp1a/1b−/−, Oatp1a/1b/2b1−/−, OATP1B1- and OATP1B3-transgenic mice; format: in vivo; settings: male, FVB, mouse, liver, oral, OATP1B3-transgenic mice; ritonavir 25 mg/kg oral; cabazitaxel 10 mg/kg oral; 2 h; read-out: Liver-to-plasma ratio
quantity: Kp at 2 h

1) CO[C@H]1C(=O)[C@]2(C)[C@@H](OC)C[C@H]3OC[C@@]3(OC(C)=O)[C@H]2[C@H](OC(=O)c2ccccc2)[C@]2(O)C[C@H](OC(=O)[C@H](O)[C@@H](NC(=O)OC(C)(C)C)c3ccccc3)C(C)=C1C2(C)C ... 4.15

====

assay: Plasma pharmacokinetics and tissue distribution 2 h after oral cabazitaxel 10 mg/kg with vehicle or 25 mg/kg ritonavir in wild-type, Oatp1a/1b−/−, Oatp1a/1b/2b1−/−, OATP1B1- and OATP1B3-transgenic mice; format: in vivo; conditions: male, FVB, mouse, liver, oral, 10 mg/kg, Oatp1a/1b/2b1−/− mice; vehicle; cabazitaxel 10 mg/kg oral; 2 h; read-out: Liver-to-plasma ratio
quantity: Kp at 2 h

1. CO[C@H]1C(=O)[C@]2(C)[C@@H](OC)C[C@H]3OC[C@@]3(OC(C)=O)[C@H]2[C@H](OC(=O)c2ccccc2)[C@]2(O)C[C@H](OC(=O)[C@H](O)[C@@H](NC(=O)OC(C)(C)C)c3ccccc3)C(C)=C1C2(C)C [cabazitaxel] ... 3.84

====

test: Plasma pharmacokinetics and tissue distribution 2 h after oral cabazitaxel 10 mg/kg with vehicle or 25 mg/kg ritonavir in wild-type, Oatp1a/1b−/−, Oatp1a/1b/2b1−/−, OATP1B1- and OATP1B3-transgenic mice; type: in vivo; details: male, FVB, mouse, plasma, po, 10 mg/kg, OATP1B3-transgenic mice; vehicle pretreatment; oral 10 mg/kg cabazitaxel
quantity: Cmax (nM)

1) CO[C@H]1C(=O)[C@]2(C)[C@@H](OC)C[C@H]3OC[C@@]3(OC(C)=O)[C@H]2[C@H](OC(=O)c2ccccc2)[C@]2(O)C[C@H](OC(=O)[C@H](O)[C@@H](NC(=O)OC(C)(C)C)c3ccccc3)C(C)=C1C2(C)C ... 2690
2) CC(=O)O[C@@]12CO[C@@H]1C[C@H](O)[C@@]1(C)C(=O)[C@H](O)C3=C(C)[C@@H](OC(=O)[C@H](O)[C@@H](NC(=O)OC(C)(C)C)c4ccccc4)C[C@@](O)([C@@H](OC(=O)c4ccccc4)[C@H]21)C3(C)C ... 248

====

experiment: Plasma pharmacokinetics and tissue distribution 2 h after oral cabazitaxel 10 mg/kg with vehicle or 25 mg/kg ritonavir in wild-type, Oatp1a/1b−/−, Oatp1a/1b/2b1−/−, OATP1B1- and OATP1B3-transgenic mice; assay type: in vivo; settings: male, FVB, mouse, plasma, po, 25 mg/kg, AUC0-[…], Oatp1a/1b−/− mice; ritonavir 25 mg/kg oral; cabazitaxel 10 mg/kg oral
quantity: AUC(0-t) (µM·h)

1) CC(C)c1nc(CN(C)C(=O)N[C@H](C(=O)N[C@@H](Cc2ccccc2)C[C@H](O)[C@H](Cc2ccccc2)NC(=O)OCc2cncs2)C(C)C)cs1 ... 16.9
